# Experimental Target: aromatase (Homo sapiens)
# Construct: Aromatase was obtained from the microsomal fraction of human placental tissue; from tissue; host or cells: human placenta, microsomal fraction
# Sequence (P11511 whole entry): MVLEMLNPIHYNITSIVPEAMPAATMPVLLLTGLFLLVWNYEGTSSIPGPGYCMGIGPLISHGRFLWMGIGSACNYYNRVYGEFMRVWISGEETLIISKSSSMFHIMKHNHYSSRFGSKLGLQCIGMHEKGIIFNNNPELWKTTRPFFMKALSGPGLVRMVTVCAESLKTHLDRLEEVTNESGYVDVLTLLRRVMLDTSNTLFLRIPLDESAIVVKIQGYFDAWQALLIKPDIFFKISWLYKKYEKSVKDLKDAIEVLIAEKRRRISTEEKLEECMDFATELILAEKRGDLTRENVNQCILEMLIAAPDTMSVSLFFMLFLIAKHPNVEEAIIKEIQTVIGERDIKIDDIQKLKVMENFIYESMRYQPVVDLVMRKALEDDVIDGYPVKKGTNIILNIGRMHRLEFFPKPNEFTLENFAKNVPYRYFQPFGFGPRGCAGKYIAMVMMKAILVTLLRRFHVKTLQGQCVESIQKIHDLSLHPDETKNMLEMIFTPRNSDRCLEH
# Procedure Text: Aromatase inhibition, (1,2-^3H) testosterone as substrate (1.5 micromolar), microsomal fraction of human placental tissue
# Assay type: biochemical
# Experimental Conditions: 1.5 micromolar (^3H) testosterone; 30° C.; "None" = no inhibition
Reported Property: pIC50
Units for pIC50: none; it is -log10 of a concentration expressed in mol/L.

CCCCCCC1(c2ccncc2)CCC(=O)N(CC)C1=O (centres unmarked) [R1=n-C6 H13, R2=n-C2 H5]
5.68

Query molecule follows.
Req: Need pIC50, item CCCCCCCC1(c2ccncc2)CCC(=O)NC1=O (centres unmarked) [R1=n-C7 H15, R2=H]
Resp: 5.70
